test system: wt-TMD8 diffuse large B-cell lymphoma cells; test: Cell proliferation assay wt-TMD8 (ATPlite, 120 hours); type: cell-based; settings: B-cell; wt-TMD8 cells, 120 hours, ATPlite; read-out: IC50 wt-TMD8
pIC50: −log10 of the molar value.

>  <Compound>
C[C@@H]1CC(=O)N[C@@H]2CC[C@H](C2)n2nc(-c3ccc(C(=O)Nc4cc(C#N)ccn4)cc3)c3c(N)ncc(c32)/C=C/CCN1

>  <Test target>
wt-TMD8 diffuse large B-cell lymphoma cells

>  <pIC50>
> 7.00

$$$$
>  <Compound>
CN1C/C=C/c2cnc(N)c3c(-c4ccc(C(=O)Nc5cc(C(F)(F)F)ccn5)cc4)nn(c23)[C@@H]2CCC[C@H](C2)C(=O)NCC1

>  <Test target>
wt-TMD8 diffuse large B-cell lymphoma cells

>  <pIC50>
> 7.00

$$$$
>  <Compound>
C[C@@H]1CCn2nc(-c3ccc(C(=O)Nc4cc(C(F)(F)F)ccn4)cc3)c3c(N)ncc(c32)/C=C/CCN2CC[C@@H]2C(=O)N1

>  <Test target>
wt-TMD8 diffuse large B-cell lymphoma cells

>  <pIC50>
> 7.00

$$$$
>  <Compound>
COc1cc(-c2nn3c4c(cnc(N)c24)/C=C/CCN[C@H](C)CC(=O)N[C@@H]2CCC[C@@H]3C2)ccc1C(=O)Nc1cc(C(F)(F)F)ccn1

>  <Test target>
wt-TMD8 diffuse large B-cell lymphoma cells

>  <pIC50>
> 7.00

$$$$
>  <Compound>
CC1CCn2nc(-c3ccc(C(=O)Nc4cc(C(F)(F)F)ccn4)cc3)c3c(N)ncc(c32)/C=C/C(O)CCCCC(=O)N1 (stereo not drawn)

>  <Test target>
wt-TMD8 diffuse large B-cell lymphoma cells

>  <pIC50>
> 7.00

$$$$
>  <Compound>
C[C@@H]1CC(=O)N[C@@H]2CC[C@H](C2)n2nc(-c3ccc(C(=O)Nc4cc(C(F)(F)F)ccn4)cc3)c3c(N)ncc(c32)/C=C/CCN1

>  <Test target>
wt-TMD8 diffuse large B-cell lymphoma cells

>  <pIC50>
> 7.00

$$$$

###

Property: IC50; scope: individual molecules
target: full-length BTK C481S enzyme (Homo sapiens (Human), UniProt Q06187, C481S); assay: Biochemical kinase assay BTK C481S (IMAP)
Sequence (Q06187 whole entry C481S): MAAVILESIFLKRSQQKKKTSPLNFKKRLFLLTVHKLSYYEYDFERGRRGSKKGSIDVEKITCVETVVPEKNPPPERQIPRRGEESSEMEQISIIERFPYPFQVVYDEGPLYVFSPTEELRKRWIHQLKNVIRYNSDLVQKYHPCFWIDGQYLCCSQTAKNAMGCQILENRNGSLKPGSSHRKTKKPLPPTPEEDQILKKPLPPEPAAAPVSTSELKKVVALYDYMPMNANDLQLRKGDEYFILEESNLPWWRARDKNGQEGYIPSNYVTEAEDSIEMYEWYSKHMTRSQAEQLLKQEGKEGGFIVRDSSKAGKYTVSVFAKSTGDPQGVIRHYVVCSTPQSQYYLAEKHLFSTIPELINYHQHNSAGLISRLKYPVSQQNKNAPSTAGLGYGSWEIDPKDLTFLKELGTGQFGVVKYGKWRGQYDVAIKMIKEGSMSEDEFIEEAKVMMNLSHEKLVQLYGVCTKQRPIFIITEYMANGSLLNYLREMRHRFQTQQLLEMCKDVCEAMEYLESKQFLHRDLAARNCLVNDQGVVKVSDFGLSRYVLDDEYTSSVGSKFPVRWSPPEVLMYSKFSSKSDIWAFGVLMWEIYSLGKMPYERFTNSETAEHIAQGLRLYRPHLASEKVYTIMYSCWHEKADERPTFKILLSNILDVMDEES

>  <Compound string>
Nc1ncc2n3c(nc(-c4ccc(C(=O)Nc5cc(C(F)(F)F)ccn5)cc4)c13)[C@@H]1CCC[C@H](C1)NC(=O)CCOCC/C=C/2

>  <IC50>
< 5 nM

$$$$
>  <Compound string>
Nc1ncc2c3c1c(-c1ccc(C(=O)Nc4cc(C(F)(F)F)ccn4)cc1)nn3[C@@H]1CCC[C@H](C1)NC(=O)COC/C=C/2

>  <IC50>
< 5 nM

$$$$
>  <Compound string>
Nc1ncc2c3c1c(-c1ccc(C(=O)Nc4ccccn4)cc1)nn3[C@@H]1CCC[C@H](C1)NC(=O)CCCCCC2

>  <IC50>
5 to 50 nM

$$$$

###

molecular target: BTK T474I (Homo sapiens (Human), UniProt Q06187, T474I); test: Binding kinetics measurements (Surface Plasmon Resonance) on BTK T474I; settings: target residence time, SPR
Sequence (Q06187 whole entry T474I): as the sequence (Q06187 whole entry C481S) above, with T474I, S481C counted along it

>  <Molecule>
COc1ccnc(NC(=O)c2ccc(-c3nc4n5c(cnc(N)c35)/C=C/CCOCCC(=O)N[C@@H]3CC[C@@H]4C3)cc2)c1 [Example 217]

>  <Tau (h) BTK T474I (Act)>
0.70

$$$$
>  <Molecule>
COc1ccc(F)cc1C(=O)NCc1ccc(-c2nc3n4c(cnc(N)c24)/C=C/CCOCCC(=O)N[C@@H]2CCC[C@@H]3C2)cc1 [Example 210]

>  <Tau (h) BTK T474I (Act)>
0.68

$$$$
>  <Molecule>
C[C@H]1OC/C=C/c2cnc(N)c3c(-c4ccc(C(=O)Nc5cc(C(F)(F)F)ccn5)cc4)nn(c23)[C@@H]2CCC[C@H](C2)NC1=O [Example 28]

>  <Tau (h) BTK T474I (Act)>
0.73

$$$$
>  <Molecule>
Nc1ncc2n3c(nc(-c4ccc(C(=O)Nc5cc(C(F)F)ccn5)cc4)c13)[C@@H]1CC[C@H](C1)NC(=O)CCOCC/C=C/2 [Example 222]

>  <Tau (h) BTK T474I (Act)>
0.60

$$$$
>  <Molecule>
C[C@@H]1CC(=O)N[C@@H]2CCC[C@H](C2)n2nc(-c3ccc(C(=O)Nc4cc(C#N)ccn4)cc3)c3c(N)ncc(c32)/C=C/CCN1 [Example 180]

>  <Tau (h) BTK T474I (Act)>
1.16

$$$$
>  <Molecule>
C[C@@H]1C[C@@H](C)n2nc(-c3ccc(C(=O)Nc4cc(C(F)(F)F)ccn4)cc3)c3c(N)ncc(c32)/C=C/CCCCCC(=O)N1 [Example 172]

>  <Tau (h) BTK T474I (Act)>
2.35

$$$$
>  <Molecule>
COc1ccc(F)cc1C(=O)NCc1ccc(-c2nn([C@@H](C)C(F)(F)F)c(N)c2C(N)=O)cc1 [pirtobrutinib, reference compound]

>  <Tau (h) BTK T474I (Act)>
0.03

$$$$
>  <Molecule>
NC(=O)[C@H]1CCN(c2ncnc(N)c2F)C[C@@H]1N1CCC[C@@H](Nc2cc(Cl)cc(C(F)(F)F)c2)C1=O [vecabrutinib, reference compound]

>  <Tau (h) BTK T474I (Act)>
0.01

$$$$
>  <Molecule>
Nc1ncc2c3c1c(-c1ccc(C(=O)Nc4cc(C(F)(F)F)ccn4)cc1)nn3[C@@H]1COC[C@H](C1)NC(=O)CCOC/C=C/2 [Example 192]

>  <Tau (h) BTK T474I (Act)>
1.40

$$$$
>  <Molecule>
Nc1ncc2c3c1c(-c1ccc(C(=O)Nc4cc(C(F)(F)F)ccn4)cc1)nn3[C@@H]1CN[C@H](C1)C(=O)NCCCCC/C=C/2 [Example 225]

>  <Tau (h) BTK T474I (Act)>
1.19

$$$$
>  <Molecule>
C[C@@H]1CC(=O)N[C@@H]2CCC[C@H](C2)n2nc(-c3ccc(C(=O)Nc4cc(C(F)(F)F)ccn4)cc3)c3c(N)ncc(c32)/C=C/CCO1 [Example 157]

>  <Tau (h) BTK T474I (Act)>
3.34

$$$$
>  <Molecule>
C[C@H]1CC(=O)N[C@@H]2CCC[C@H](C2)n2nc(-c3ccc(C(=O)Nc4cc(C(F)(F)F)ccn4)cc3)c3c(N)ncc(c32)/C=C/CCN1C [Example 152]

>  <Tau (h) BTK T474I (Act)>
2.11

$$$$
>  <Molecule>
N#Cc1ccnc(NC(=O)c2ccc(-c3nn4c5c(cnc(N)c35)/C=C/CCOCCC(=O)N[C@@H]3CCC[C@@H]4C3)cc2)c1 [Example 155]

>  <Tau (h) BTK T474I (Act)>
2.63

$$$$
>  <Molecule>
Nc1ncc2c3c1c(-c1ccc(C(=O)Nc4cc(C(F)(F)F)ccn4)cc1)nn3[C@@H]1CCC[C@H](C1)NC(=O)C1CCN1CC/C=C/2 (stereo partly drawn) [Example 34]

>  <Tau (h) BTK T474I (Act)>
1.70

$$$$
>  <Molecule>
N#Cc1ccnc(NC(=O)c2ccc(-c3nc4n5c(cnc(N)c35)/C=C/COCCC(=O)N[C@@H]3CCC[C@@H]4C3)cc2)c1 [Example 200]

>  <Tau (h) BTK T474I (Act)>
0.77

$$$$
>  <Molecule>
C[C@@H]1CC(=O)N[C@@H]2CCC[C@H](C2)c2nc(-c3ccc(C(=O)Nc4cc(C(F)(F)F)ccn4)cc3)c3c(N)ncc(n23)/C=C/CCN1 [Example 179]

>  <Tau (h) BTK T474I (Act)>
1.14

$$$$
>  <Molecule>
C[C@@H]1CC(=O)N[C@@H]2CCC[C@H](C2)n2nc(-c3ccc(C(=O)Nc4cc(C#N)ccn4)cc3)c3c(N)ncc(c32)/C=C/CCO1 [Example 162]

>  <Tau (h) BTK T474I (Act)>
2.05

$$$$
>  <Molecule>
C[C@@H]1CCn2nc(-c3ccc(C(=O)Nc4cc(C(F)(F)F)ccn4)cc3)c3c(N)ncc(c32)/C=C/COCCC(=O)N1 [Example 71]

>  <Tau (h) BTK T474I (Act)>
0.52

$$$$
>  <Molecule>
Nc1ncc2c3c1c(-c1ccc(C(=O)Nc4cc(C(F)(F)F)ccn4)cc1)nn3[C@@H]1CC[C@H](C1)NC(=O)CCOC/C=C/2 [Example 170]

>  <Tau (h) BTK T474I (Act)>
2.54

$$$$
>  <Molecule>
Nc1ncc2c3c1c(-c1ccc(C(=O)Nc4cc(C(F)(F)F)ccn4)cc1)nn3[C@@H]1CC[C@H](C1)NC(=O)CCOCC/C=C/2 [Example 169]

>  <Tau (h) BTK T474I (Act)>
3.69

$$$$
>  <Molecule>
Nc1ncc2c3c1c(-c1ccc(C(=O)Nc4cc(C(F)(F)F)ccn4)cc1)nn3[C@@H]1CCC[C@H](C1)NC(=O)CCC/C=C/2 [Example 47]

>  <Tau (h) BTK T474I (Act)>
0.86

$$$$
>  <Molecule>
N#Cc1ccnc(NC(=O)c2ccc(-c3nc4n5c(cnc(N)c35)/C=C/CCCCCC(=O)N[C@@H]3CC[C@@H]4C3)cc2)c1 [Example 204]

>  <Tau (h) BTK T474I (Act)>
0.90

$$$$
>  <Molecule>
C[C@@H]1CC(=O)N[C@@H]2CC[C@H](C2)n2nc(-c3ccc(C(=O)Nc4cc(C(F)(F)F)ccn4)cc3)c3c(N)ncc(c32)/C=C/CCN1 [Example 175]

>  <Tau (h) BTK T474I (Act)>
1.31

$$$$
>  <Molecule>
Nc1ncc2c3c1c(-c1ccc(C(=O)Nc4cc(C(F)(F)F)ccn4)cc1)nn3[C@@H]1CCC[C@H](C1)NC(=O)CCOC/C=C/2 [Example 25]

>  <Tau (h) BTK T474I (Act)>
3.02

$$$$
